Hey, just so you know, these numbers are from ChEMBL document CHEMBL1142965.

This listing pairs compounds with measured IC50.
# subjectOfTest: Hypoxia inducible factors; HIF-1-alpha, HIF-2-alpha (Homo sapiens, UniProt Q16665+Q99814)
# testProtocol: Inhibition of hypoxia induced HIF1 transcriptional activity in human Hep3B cells by cell-based HRE reporter assay
# Assay type: functional
# measurementContext: hep 3b2

// known answers, use as guide
| substanceSmiles | assayMetric | reportedValue |
| --- | --- | --- |
| Cc1ccc(OCC(=O)Nc2cccc(C(=O)O)c2)cc1 | IC50 | > 30 µM |
| O=C(COc1ccc(C23CC4CC(CC(C4)C2)C3)cc1)Nc1cccc(C(=O)NCCc2ccncc2)c1 | IC50 | 8.2 µM |
| O=C(COc1ccc(C23CC4CC(CC(C4)C2)C3)cc1)Nc1cc(C(=O)O)ccc1O | IC50 | 0.4 µM |
| CC(C)(C)c1ccc(OCC(=O)Nc2cccc(C(=O)O)c2)cc1 | IC50 | 29 µM |

Test system Hypoxia inducible factors; HIF-1-alpha, HIF-2-alpha (Homo sapiens, UniProt Q16665+Q99814); read-out IC50; what value for O=C(COc1ccccc1)Nc1cccc(C(=O)O)c1 ? > 30 µM

Also O=C(COc1ccc(Br)cc1)Nc1cccc(C(=O)O)c1 ? > 30 µM

Also O=C(COc1ccc(Cl)cc1)Nc1cccc(C(=O)O)c1 ? > 30 µM

Also NC(=O)c1cccc(NC(=O)COc2ccccc2)c1 ? > 30 µM

Also O=C(COc1ccc(C23CC4CC(CC(C4)C2)C3)cc1)Nc1cccc(C(=O)NCc2ccco2)c1 ? 14.08 µM

Also Cc1ccc(-c2ccc(OCC(=O)Nc3cccc(C(=O)O)c3)cc2)cc1 ? 23.2 µM

Also COC(=O)c1cccc(NC(=O)COc2ccc(C34CC5CC(CC(C5)C3)C4)cc2)c1 ? 9.9 µM

Also O=C(COc1ccc(C23CC4CC(CC(C4)C2)C3)cc1)Nc1ccccc1C(=O)O ? 10.5 µM

Also NC(=O)c1ccc(O)c(NC(=O)COc2ccc(C34CC5CC(CC(C5)C3)C4)cc2)c1 ? > 30 µM

Also O=C(COc1ccc(C23CC4CC(CC(C4)C2)C3)cc1)Nc1cccc(C(=O)Nc2ccc(Cl)cc2)c1 ? > 30 µM

Also O=C(COc1ccc(I)cc1)Nc1cccc(C(=O)O)c1 ? 7.2 µM

Also O=C(COc1ccc(-c2cccc([N+](=O)[O-])c2)cc1)Nc1cccc(C(=O)O)c1 ? > 30 µM

Also COC(=O)c1ccc(O)c(NC(=O)COc2ccc(C34CC5CC(CC(C5)C3)C4)cc2)c1 ? 2.6 µM

* * *

# subjectOfTest: Hypoxia inducible factors; HIF-1-alpha, HIF-2-alpha (Homo sapiens, UniProt Q16665+Q99814)
# testProtocol: Inhibition of hypoxia induced HIF1 transcriptional activity in human Hep3B cells by cell-based HRE reporter assay
# Format: functional
# measurementContext: hep 3b2
assayMetric: IC50

| substanceSmiles | IC50 |
| --- | --- |
| Cc1ccc(OCC(=O)Nc2cccc(C(N)=O)c2)cc1 | > 30 µM |
| O=C(COc1ccc(C23CC4CC(CC(C4)C2)C3)cc1)Nc1cccc(C(=O)Nc2ccc3ccccc3c2)c1 | > 30 µM |

Find the recorded IC50 belonging to NC(=O)c1cccc(NC(=O)COc2ccc(C34CC5CC(CC(C5)C3)C4)cc2)c1 and report it. 4.3 µM

Also CC(C)(C)c1ccc(OCC(=O)Nc2cccc(C(N)=O)c2)cc1 ? > 30 µM

Also O=C(COc1ccc(C23CC4CC(CC(C4)C2)C3)cc1)Nc1cccc(C(=O)O)c1 ? 5 µM

Also O=C(COc1ccc(-c2cccs2)cc1)Nc1cccc(C(=O)O)c1 ? > 30 µM

Also NC(=O)c1cccc(NC(=O)COc2ccc([N+](=O)[O-])cc2)c1 ? > 30 µM

Also CN(C)C(=O)c1ccc(O)c(NC(=O)COc2ccc(C34CC5CC(CC(C5)C3)C4)cc2)c1 ? > 30 µM

Also CC(=O)c1ccc(OCC(=O)Nc2cccc(C(=O)O)c2)cc1 ? > 30 µM
